Assignment: determine reported IC50 for the given compounds.
Target: Recombinant Btk (Homo sapiens, UniProt Q06187)
Sequence (Q06187 whole entry): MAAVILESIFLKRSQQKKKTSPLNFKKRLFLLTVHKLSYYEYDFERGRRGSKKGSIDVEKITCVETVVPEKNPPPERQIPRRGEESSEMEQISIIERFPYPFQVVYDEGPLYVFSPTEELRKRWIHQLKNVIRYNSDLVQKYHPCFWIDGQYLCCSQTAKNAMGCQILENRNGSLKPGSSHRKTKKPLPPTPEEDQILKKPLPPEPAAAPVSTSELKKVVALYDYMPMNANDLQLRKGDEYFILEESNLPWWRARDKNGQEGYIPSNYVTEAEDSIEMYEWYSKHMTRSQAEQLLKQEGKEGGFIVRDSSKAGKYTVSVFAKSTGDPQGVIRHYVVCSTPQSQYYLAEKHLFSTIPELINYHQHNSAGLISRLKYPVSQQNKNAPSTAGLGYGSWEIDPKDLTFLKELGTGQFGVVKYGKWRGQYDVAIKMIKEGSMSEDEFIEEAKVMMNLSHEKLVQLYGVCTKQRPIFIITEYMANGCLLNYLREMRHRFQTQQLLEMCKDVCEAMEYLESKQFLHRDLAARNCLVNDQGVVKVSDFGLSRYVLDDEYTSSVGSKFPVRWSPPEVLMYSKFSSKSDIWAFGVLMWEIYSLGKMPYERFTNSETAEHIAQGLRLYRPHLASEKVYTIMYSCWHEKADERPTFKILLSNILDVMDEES
Assay: Btk Kinase Assay (TR-FRET)
Please reply with the bare figure in nM and do not write the unit itself.

Recorded IC50 for `C=CC(=O)N1CCC[C@@H](n2nc(-c3ccc(Cl)cc3)c(C(N)=O)c2N)C1` with Recombinant Btk (Homo sapiens, UniProt Q06187), please?
0.54

Recorded IC50 for C=CS(=O)(=O)N1CCCC(n2nc(-c3ccc(Oc4ccccc4)cc3)c(C(N)=O)c2N)C1 (stereo not shown) with Recombinant Btk (Homo sapiens, UniProt Q06187), please?
0.23

Recorded IC50 for CN(C)C/C=C/C(=O)N1CCCC(n2nc(-c3ccc(Oc4ccccc4)cc3)c(C(N)=O)c2N)C1 (stereo not shown) with Recombinant Btk (Homo sapiens, UniProt Q06187), please?
0.56

Recorded IC50 for `C=CC(=O)N1CCC[C@@H](n2nc(-c3ccc(C)c(OC)c3)c(C(N)=O)c2N)C1` with Recombinant Btk (Homo sapiens, UniProt Q06187), please?
0.24

====

Target: Recombinant Btk (Homo sapiens, UniProt Q06187)
Test: Btk Kinase Assay (TR-FRET)
Experimental readout: pIC50
Convention used: pIC50 is expressed as -log10 of the molar concentration.

Fill in: pIC50 of `C=CC(=O)N1CCc2c(c(N)c(C(N)=O)n2-c2ccc(OCc3ccccc3)cc2)C1` is ___
7.60

Fill in: pIC50 of `NC(=O)c1c(N)c(C2CCNCC2)cn1-c1ccc(Oc2ccccc2)cc1` is ___
5.12

Fill in: pIC50 of CN1CC=C(C(=O)N2CCCC(n3nc(-c4ccc(Oc5ccccc5)cc4)c(C(N)=O)c3N)C2)CC1 (centres unmarked) is ___
7.85

Fill in: pIC50 of CN(C)C(=O)/C=C/CN1CCCC(n2nc(-c3ccc(Oc4ccccc4)cc3)c(C(N)=O)c2N)C1 (centres unmarked) is ___
7.74

Fill in: pIC50 of C=CC(=O)N1CCC(N2CCc3c(c(N)c(C(N)=O)n3-c3ccc(Oc4ccccc4)cc3)C2)C1 (centres unmarked) is ___
5.49

Fill in: pIC50 of `C=CC(=O)N1CCC[C@@H](n2nc(-c3ccc(OCC4CC4)cc3)c(C(N)=O)c2N)C1` is ___
9.04

Fill in: pIC50 of `C=CC(=O)NCCN1CCc2c(c(N)c(C(N)=O)n2-c2ccc(Oc3ccccc3)cc2)C1` is ___
6.32

Fill in: pIC50 of N#C/C=C/CN1CCCC(n2nc(-c3ccc(Oc4ccccc4)cc3)c(C(N)=O)c2N)C1 (centres unmarked) is ___
8.12

====

Target: Recombinant Btk (Homo sapiens, UniProt Q06187)
Assay: Btk Kinase Assay (TR-FRET)
Experimental readout: pIC50
Convention used: pIC50 is expressed as -log10 of the molar concentration.

Fill in: pIC50 of C=CC(=O)Nc1ccc2c(N)c(C(N)=O)n(-c3ccc(Oc4ccccc4)cc3)c2c1 [II-8] is ___
6.68

Fill in: pIC50 of C=CC(=O)N1CCc2c(c(N)c(C(N)=O)n2-c2ccc(Oc3ccccc3)cc2)C1 [II-1] is ___
8.48

Fill in: pIC50 of C=CC(=O)N1CCC[C@@H](n2nc(-c3ccc(OC)cc3)c(C(N)=O)c2N)C1 [Compound I-16] is ___
8.85

Fill in: pIC50 of C=CC(=O)N1CCC[C@@H](n2nc(-c3ccc(Cl)c(OC)c3)c(C(N)=O)c2N)C1 [Compound I-21] is ___
9.74

Fill in: pIC50 of NC(=O)c1c(-c2ccc(Oc3ccccc3)cc2)nn(C2CCCN(C(=O)CCl)C2)c1N (stereo not shown) [Compound I-6] is ___
9.66

Fill in: pIC50 of CC=CC(=O)N1CCCC(n2nc(-c3ccc(Oc4ccccc4)cc3)c(C(N)=O)c2N)C1 (stereo not shown) [Compound I-5] is ___
8.60

Fill in: pIC50 of C=CC(=O)N1Cc2c(N)c(C(N)=O)n(-c3ccc(Oc4ccccc4)cc3)c2C1 [II-5] is ___
8.05

Fill in: pIC50 of C=CC(=O)N1CCC[C@@H](n2nc(-c3ccc(OC(C)C)cc3)c(C(N)=O)c2N)C1 [Compound I-18] is ___
8.62

Fill in: pIC50 of C=CC(=O)N1Cc2c(N)c(C(N)=O)n(-c3ccc(Oc4ccc(C(C)(C)C)cc4)cc3)c2C1 [II-6] is ___
7.47

Fill in: pIC50 of C=CC(=O)N1CC2(CC(n3nc(-c4ccc(Oc5ccccc5)cc4)c(C(N)=O)c3N)C2)C1 [Compound I-19] is ___
9.82

Fill in: pIC50 of N#C/C=C\CN1CCCC(n2nc(-c3ccc(Oc4ccccc4)cc3)c(C(N)=O)c2N)C1 (stereo not shown) [Compound I-12] is ___
7.74

Fill in: pIC50 of C#CC(=O)N1CCCC(n2nc(-c3ccc(Oc4ccccc4)cc3)c(C(N)=O)c2N)C1 (stereo not shown) [Compound I-13] is ___
9.68

Fill in: pIC50 of N#CCC(=O)N1CCCC(n2nc(-c3ccc(Oc4ccccc4)cc3)c(C(N)=O)c2N)C1 (stereo not shown) [Compound I-9] is ___
7.66

Fill in: pIC50 of C=CC(=O)N1CCC[C@@H](n2nc(-c3ccc(OCC(C)C)cc3)c(C(N)=O)c2N)C1 [Compound I-20] is ___
9.31

Fill in: pIC50 of C=CC(=O)Nc1ccc2c(c1)c(N)c(C(N)=O)n2-c1ccc(Oc2ccccc2)cc1 [II-7] is ___
8.03

Fill in: pIC50 of C=CC(=O)N1CCCC(c2cn(-c3ccc(Oc4ccccc4)cc3)c(C(N)=O)c2N)C1 (stereo not shown) [II-10] is ___
8.57

====

Target: phosphorylated Btk at Tyr223 in Ramos cells (Homo sapiens, UniProt Q06187)
Construct: determine the endogenous levels of phosphorylated Btk at Tyr223; endogenous in cells; host or cells: Ramos cells (CRL-1596, ATCC)
Sequence (Q06187 whole entry): as above
Assay: Btk pY223 Cellular Assay (HTRF, Ramos cells)
Format: cell-based
Settings: 1 hour compound incubation, stimulated with pervanadate or Na3VO4, read-out: 1050 (nM) Btk pY223
Experimental readout: IC50 (nM)
Please reply with the bare figure in nM and do not write the unit itself.

Fill in: IC50 of `C=CC(=O)N1CCc2c(c(N)c(C(N)=O)n2-c2ccc(Oc3ccccc3)cc2)C1` is ___
16.6

Fill in: IC50 of `C=CC(=O)Nc1ccc2c(c1)c(N)c(C(N)=O)n2-c1ccc(Oc2ccccc2)cc1` is ___
55.6

Fill in: IC50 of `C=CC(=O)N1CCC[C@@H](n2nc(-c3ccc(OC)cc3)c(C(N)=O)c2N)C1` is ___
17.7

Fill in: IC50 of CC=CC(=O)N1CCCC(n2nc(-c3ccc(Oc4ccccc4)cc3)c(C(N)=O)c2N)C1 (stereo not shown) is ___
42.6
